Answer each item with its documented TGI.
# System: SK-OV-3 ovarian
# Assay info: NCI tumour cell line growth inhibition, 48 h

Hey, SK-OV-3 ovarian data for COC1/C=C/C(C)C(OC)CC(O)/C=C/C(C)C(C(C)C(OC)C(C)CCC(=O)C(C)C(C/C=C/N(C)C=O)OC)OC(=O)/C=C/C=C(\C)CC(OC)C(OC)C2=CC(=O)O[C@@H](C(C)C(OC)C1)[C@H]2O (stereo partly specified) : TGI came out at 0.104 µM

The observed TGI for `ON=C1CCCCC(=NO)CCCC1` when tested with SK-OV-3 ovarian stands at > 100 µM

Value sought: TGI, system SK-OV-3 ovarian, item `CC/C(=N\Nc1nc2ccccc2n1C)c1ccccn1` . Result: 1.58 µM

The observed TGI for `Nc1ccc2c(c1)C(=O)c1ccc(F)cc1-2` when tested with SK-OV-3 ovarian stands at > 100 µM

Value sought: TGI, system SK-OV-3 ovarian, item C=C1CC(OC(C)=O)/C=C(/C)CCC(C(C)(C)O)CC1O (stereo unspecified) . Result: > 100 µM

Sample `CCOC(=O)CC(=O)ON(C)C(=O)Cc1ccccc1` , system: SK-OV-3 ovarian. Its TGI is > 100 µM

The compound `OC(c1cc(C(O)(C(F)(F)F)C(F)(F)F)ncn1)(C(F)(F)F)C(F)(F)F` , tested on SK-OV-3 ovarian, showed TGI of > 10 µM

Bench note, SK-OV-3 ovarian: `O=[N+]([O-])c1cc2n[nH]nc2c2nonc12` , TGI reads > 100 µM

Result for O=C1NC(=NCC(CO)c2ccccc2)S/C1=C\c1ccc2ncccc2c1 (stereo unspecified) , tested on SK-OV-3 ovarian, TGI: > 25 µM

The observed TGI for `CCOC(=O)/C(C(=S)NC)=C(/N)N1CCCC1` when tested with SK-OV-3 ovarian stands at > 100 µM

SK-OV-3 ovarian TGI of OC1CN(OC/C=C/c2ccccc2)CC(O)C1O (stereo unspecified) is > 100 µM

---

# Test system: KM12 colon
# Assay info: NCI tumour cell line growth inhibition, 48 h
Readout type: TGI

The reported TGI of the molecule `CN1CCc2c(sc3nc(Nc4ccccc4)n(N)c(=O)c23)C1` was > 100 µM

Notebook: CN(Cc1cnc2nc(N)nc(N)c2n1)c1ccc(C(=O)NC(CCS(=O)(=O)O)C(=O)O)cc1 (stereo not given) , TGI read as > 100 µM

Lookup result for `NC(=O)c1cnc2sc3ccccc3n2c1=O` ; measured TGI: > 100 µM

Record `CCN1CCC[C@H]1c1cc(O)c2c(c1OC)C[C@H]1C[C@H]3[C@H](N)C(=O)C(C(N)=O)=C(O)[C@@]3(O)C(=O)C1=C2O` . Reported TGI: 13.2 µM

get_value(item= `COc1ccc2c(c1)C(=O)c1c-2n(CCCN=[N+]=[N-])c(=O)c2ccccc12` , readout=TGI) returns > 100 µM

---

# Tested on: MOLT-4 leukemia
Assign a class; possible classes are active, inactive

Returns: the outcome recorded for `COC(=O)/C(C#N)=C\N1CCN(C(=O)c2ccco2)C1=S` in this assay. inactive

GET /call?item= `CC/C(=N\Nc1nc2ccccc2n1C)c1ccccn1` returns the recorded outcome of this test. active

Check the results log: what was the call for O=C1NC(=NCC(CO)c2ccccc2)S/C1=C\c1ccc2ncccc2c1 (centres undefined) ? inactive

Please state the recorded outcome for this molecule: `Clc1ccc(-c2nc3c(-c4ccc(Cl)cc4)nc(-c4ccccc4)cn3c2-c2ccc(Cl)cc2)cc1` inactive

# outcome recorded in this test, key = `CCOP(=O)(CCP(=O)(OCC)OCC)OCC.C[CH2][Sn]([Cl])([Cl])[CH2]C` inactive

# outcome recorded in this test, key = `CC(C)=CC/C=C(/C)[C@H]1CC[C@]2(C)[C@@H]1CC[C@@H]1[C@@]3(C)CCC(=O)NC(C)(C)[C@@H]3CC[C@]12C` inactive

# outcome recorded in this test, key = C=CCN1C(=O)/C(=c2\sc3n(c2=O)C2C(NN=3)N(CC)C(=O)N2CC)c2ccccc21 (centres undefined) inactive

Give the logged outcome of this assay for the following molecule: `c1cncc(CNc2ccccc2-c2nnc(Nc3ccc4c(c3)OCO4)o2)c1` active

Fill in: this test's call for `CCN1CCN(CCOc2ccc(CNc3ccc4nc(CCC5CCCCC5)[nH]c4c3)cc2)CC1` is ___ inactive

# credit: PubChem BioAssay (NCI)
